src = PubChem BioAssay AID1259407

- Tested on: CCRIS mutagenicity, Ames/micronucleus/aberration tests
- ASSAY PROTOCOL: CCRIS mutagenicity studies
- RUN CONDITIONS: Test System: CHINESE HAMSTER V-79; Strain/Indicator: V-79/6-THIOGUANINE; Metabolic Activation: NONE; Method: STANDARD PLATE
The source made the active and inactive calls. The rule behind the calls is not given here.
ENDPOINT: mutagenic call

COc1cc2c(c3oc(=O)c4c(c13)CCC4=O)[C@@H]1C=CO[C@@H]1O2 ... inactive; negative
CCCCC/C=C/C=O ... active; positive
Oc1c(O)c(Cl)c(Cl)c(Cl)c1Cl ... inactive; negative
CC(=O)N(O)c1ccc(/C=C/c2ccccc2)cc1 ... active; positive
O=NN(CCCl)C(=O)NCCCl ... active; positive
COc1c(O)c(OC)c(Cl)c(Cl)c1Cl ... inactive; negative
C[C@]12C=CC3=C4CCC(=O)C=C4CC[C@H]3[C@@H]1CC[C@@H]2O ... inactive; negative
